tested system: T1, human TREM2 on cells (human, UniProt Q9NZC2 19-230)
T1 sequence: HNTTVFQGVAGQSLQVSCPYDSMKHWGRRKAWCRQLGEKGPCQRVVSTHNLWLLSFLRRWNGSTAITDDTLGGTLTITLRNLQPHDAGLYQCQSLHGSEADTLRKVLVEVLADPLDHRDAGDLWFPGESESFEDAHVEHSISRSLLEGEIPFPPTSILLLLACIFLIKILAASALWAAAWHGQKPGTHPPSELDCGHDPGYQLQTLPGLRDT
measurement description: cell-based or functional assay
endpoint name: EC50, Jurkat NFAT luciferase reporter cells (µg/mL)
State the answer as a number, implicitly in µg/mL.

h3.10C2.v1 hIgG1 N297G (antibody, V domains shown, Human IgG1 N297G; also called h3.10C2.v1.huIgG1.N297G) VH: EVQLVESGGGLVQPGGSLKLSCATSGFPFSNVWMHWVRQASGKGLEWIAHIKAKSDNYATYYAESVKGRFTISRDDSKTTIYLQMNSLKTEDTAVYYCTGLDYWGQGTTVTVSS VL: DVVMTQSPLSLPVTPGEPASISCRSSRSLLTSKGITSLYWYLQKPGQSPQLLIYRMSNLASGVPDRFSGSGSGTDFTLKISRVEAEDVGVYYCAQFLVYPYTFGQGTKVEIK: 0.076
hPara.09.v2 hIgG1 N297G (antibody, V domains shown, also called hPara.09.H5.hIgG1.N297G) VH: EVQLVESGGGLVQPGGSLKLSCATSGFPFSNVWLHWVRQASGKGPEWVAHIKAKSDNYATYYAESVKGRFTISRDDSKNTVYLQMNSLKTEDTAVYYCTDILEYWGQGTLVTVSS VL: DVVMTQSPLSLPVTPGEPASISCRSSRSLLTSKGITSLYWYLQKPGQSPQLLIYRMSNLASGIPDRFSGSGSGTDFTLKISRVEAEDVGVYYCAQFLVYPYTFGQGTKVEIKR: 0.0245

As a next step, examine the binder that follows.
Entry under test: hPara.09.v2 Q100P/V104L (antibody, human IgG1, V domains shown) VH: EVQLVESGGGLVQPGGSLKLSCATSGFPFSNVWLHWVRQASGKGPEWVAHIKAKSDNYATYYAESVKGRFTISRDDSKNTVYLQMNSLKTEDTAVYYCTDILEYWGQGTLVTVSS VL: DVVMTQSPLSLPVTPGEPASISCRSSRSLLTSKGITSLYWYLQKPGQSPQLLIYRMSNLASGIPDRFSGSGSGTDFTLKISRVEAEDVGVYYCAQFLVYPYTFGPGTKLEIK . Its EC50, Jurkat NFAT luciferase reporter cells was 0.0232

Ref: patent US20220389097A1
